# credit: patent US9604988B2

molecular target: HCK (Homo sapiens, UniProt P08631)
Sequence (P08631 whole entry): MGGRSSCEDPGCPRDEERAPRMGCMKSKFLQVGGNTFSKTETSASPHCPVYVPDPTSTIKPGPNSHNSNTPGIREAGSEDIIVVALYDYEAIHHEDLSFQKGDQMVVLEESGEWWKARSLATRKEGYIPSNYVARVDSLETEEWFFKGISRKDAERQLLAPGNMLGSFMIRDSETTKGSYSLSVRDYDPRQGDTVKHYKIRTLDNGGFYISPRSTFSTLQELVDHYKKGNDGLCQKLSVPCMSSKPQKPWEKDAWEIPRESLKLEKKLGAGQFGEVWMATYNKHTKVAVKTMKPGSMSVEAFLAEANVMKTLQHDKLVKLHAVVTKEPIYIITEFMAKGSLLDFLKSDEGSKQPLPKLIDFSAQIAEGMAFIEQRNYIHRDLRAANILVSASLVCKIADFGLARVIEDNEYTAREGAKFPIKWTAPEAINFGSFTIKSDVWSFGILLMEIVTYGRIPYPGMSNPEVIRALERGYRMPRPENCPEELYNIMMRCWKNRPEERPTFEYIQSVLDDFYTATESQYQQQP
pIC50: −log10 of the molar value.
experimental endpoint: pIC50

# molecule, numeric value
data = [
    ("Nc1ncnc2c1c(-c1ccc(Oc3ccccc3)cc1)cn2[C@H]1CC[C@@H](NC(=O)c2ccncc2)CC1", 8.40),
]

1 = COc1cc(-c2cn([C@H]3CC[C@H](N4CCn5c(C)cnc5C4)CC3)c3ncnc(N)c23)ccc1NC(=O)c1cc2ccccc2n1C
2 = Cn1nccc1CN[C@H]1CC[C@@H](n2cc(-c3ccc(Oc4ccccc4)cc3)c3c(N)ncnc32)CC1
3 = COc1cc(-c2cn([C@H]3CC[C@@H](N4CCn5nc(C)cc5C4)CC3)c3ncnc(N)c23)ccc1NC(=O)c1cc2ccccc2n1C
Please rank these molecules by pIC50 in descending order. Return value: ordered labels per request.
2, 1, 3
